# target.under.test: T1, hCD112R mFC recombinant protein (human; murine, UniProt Q6DKI7 41-160)
# T1 construct: range 41-160; expressed in 293E cells; also called hCD112R ECD mFC; hCD112R-ECD-mFC; not shown: murine IgG2a Fc domain (MX2-mFc vector)
# T1 sequence (looked up): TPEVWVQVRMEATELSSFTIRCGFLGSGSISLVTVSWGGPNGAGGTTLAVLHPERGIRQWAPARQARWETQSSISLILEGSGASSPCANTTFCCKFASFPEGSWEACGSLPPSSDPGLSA
# measurement.notes: ELISA, coated hCD112R-ECD-mFC
measured.parameter: EC50 (ng/mL)
One number for each entry, in ng/mL.

binder | value
Hu22 (antibody, IgG4, V domains shown, humanized IgG4) VH: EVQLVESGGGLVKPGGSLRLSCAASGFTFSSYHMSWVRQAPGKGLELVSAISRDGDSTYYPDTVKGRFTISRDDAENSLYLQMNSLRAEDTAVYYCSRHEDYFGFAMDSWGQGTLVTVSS VL: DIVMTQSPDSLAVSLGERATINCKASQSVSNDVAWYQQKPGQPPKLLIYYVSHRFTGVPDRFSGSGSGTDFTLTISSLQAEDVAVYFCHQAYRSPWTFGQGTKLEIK | 4.25

Hi! Can you tell me EC50 for each of these binders?
1. Hu25 (antibody, IgG4, V domains shown, humanized IgG4) VH: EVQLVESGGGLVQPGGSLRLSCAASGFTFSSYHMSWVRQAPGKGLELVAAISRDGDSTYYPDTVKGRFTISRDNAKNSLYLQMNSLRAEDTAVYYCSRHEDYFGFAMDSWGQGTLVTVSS VL: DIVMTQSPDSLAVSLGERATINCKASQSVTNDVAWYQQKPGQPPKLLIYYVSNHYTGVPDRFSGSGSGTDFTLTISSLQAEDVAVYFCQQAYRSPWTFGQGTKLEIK
2. Hu53 (antibody, IgG4, V domains shown, humanized IgG4) VH: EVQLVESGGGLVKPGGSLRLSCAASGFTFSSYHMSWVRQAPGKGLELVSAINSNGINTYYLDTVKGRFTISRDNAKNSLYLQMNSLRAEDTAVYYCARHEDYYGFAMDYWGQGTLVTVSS VL: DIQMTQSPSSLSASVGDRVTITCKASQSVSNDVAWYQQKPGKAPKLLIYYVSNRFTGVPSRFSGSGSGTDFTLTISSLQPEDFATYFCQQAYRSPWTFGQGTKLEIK

Reply |
1: 4.03; 2: 5.42
